system: HEp-2 cells; conditions: HEp-2 cell cytotoxicity
Below: a set of entries, each annotated with reported CC50.
ASSAY_METRIC: CC50 (µM)

{"COMPOUND_STRUCTURE": "COCCCNC(=O)c1ccc(Cn2c(=O)c3ccccc3n(Cc3ccc([N+](=O)[O-])cc3)c2=O)cc1", "ASSAY_METRIC": "CC50", "QUALIFIER_SYMBOL": ">", "QUANTITATIVE_RESULT": 128}
{"COMPOUND_STRUCTURE": "CN(C)c1ccc(Cn2c(=O)n(Cc3ccc(C(=O)NCC4COC4)cc3)c(=O)c3ccccc32)cc1", "ASSAY_METRIC": "CC50", "QUALIFIER_SYMBOL": "=", "QUANTITATIVE_RESULT": 44.7}

* * *

test: in vitro; conditions: human
ASSAY_METRIC: CC50 at 6 days

{"COMPOUND": "NC(=O)c1ncn([C@@H]2O[C@H](CO)[C@@H](O)[C@H]2O)n1 [ribavirin, reference compound]", "ASSAY_METRIC": "CC50 at 6 days", "RESULT": "114 µM"}

* * *

assay: in vitro; conditions: PAMPA
ASSAY_METRIC: Papp

{"COMPOUND_STRUCTURE": "CNC(=C[N+](=O)[O-])NCCSCc1ccc(CN(C)C)o1", "RESULT": "< 10 ×10⁻⁶ cm/s"}

* * *

assay: in vitro; conditions: PAMPA, pH 7.4

{"COMPOUND_STRUCTURE": "CNC(=C[N+](=O)[O-])NCCSCc1ccc(CN(C)C)o1", "Papp": "< 10 ×10⁻⁶ cm/s"}

* * *

Measured CC50 at 6 days by item
experiment: in vitro; settings: human, CC50, HEp-2 cell cytotoxicity

{"COMPOUND_STRUCTURE": "COCCCNC(=O)c1ccc(Cn2c(=O)c3ccccc3n(Cc3ccc(C(C)C)cc3)c2=O)cc1", "QUALIFIER_SYMBOL": ">", "CC50 at 6 days, µM": 200}
{"COMPOUND_STRUCTURE": "CCc1ccc(Cn2c(=O)n(Cc3ccc(C(=O)NCCCOC)cc3)c(=O)c3ccccc32)cc1", "QUALIFIER_SYMBOL": "=", "CC50 at 6 days, µM": 94.9}
{"COMPOUND_STRUCTURE": "COCCCNC(=O)c1ccc(Cn2c(=O)c3ccccc3n(Cc3ccc([N+](=O)[O-])cc3)c2=O)cc1", "QUALIFIER_SYMBOL": "=", "CC50 at 6 days, µM": 128}
{"COMPOUND_STRUCTURE": "COCCCNC(=O)c1ccc(Cn2c(=O)c3ccccc3n(Cc3ccc(C)cc3)c2=O)cc1", "QUALIFIER_SYMBOL": "=", "CC50 at 6 days, µM": 59.5}
{"COMPOUND_STRUCTURE": "COCCCNC(=O)c1ccc(Cn2c(=O)c3ccccc3n(Cc3ccc(Br)cc3)c2=O)cc1", "QUALIFIER_SYMBOL": "=", "CC50 at 6 days, µM": 98.9}

* * *

tested on: RSV; assay: RSV CPE assay (inhibition of RSV-induced cytopathic effect, luminescent cell viability readout); type: cell-based, RSV (strain Long); conditions: human respiratory syncytial virus; repeat of the RSV CPE assay; read-out: RSV CPE assay, repeated

{"COMPOUND_STRUCTURE": "COCCCNC(=O)c1ccc(Cn2c(=O)c3ccccc3n(Cc3ccc([N+](=O)[O-])cc3)c2=O)cc1", "UNIT_LABEL": "nM", "EC50": 200}
